The measured values listed here are drawn from patent US20150133367A1.

Target: T1, Calpain-1
T1 chain 1: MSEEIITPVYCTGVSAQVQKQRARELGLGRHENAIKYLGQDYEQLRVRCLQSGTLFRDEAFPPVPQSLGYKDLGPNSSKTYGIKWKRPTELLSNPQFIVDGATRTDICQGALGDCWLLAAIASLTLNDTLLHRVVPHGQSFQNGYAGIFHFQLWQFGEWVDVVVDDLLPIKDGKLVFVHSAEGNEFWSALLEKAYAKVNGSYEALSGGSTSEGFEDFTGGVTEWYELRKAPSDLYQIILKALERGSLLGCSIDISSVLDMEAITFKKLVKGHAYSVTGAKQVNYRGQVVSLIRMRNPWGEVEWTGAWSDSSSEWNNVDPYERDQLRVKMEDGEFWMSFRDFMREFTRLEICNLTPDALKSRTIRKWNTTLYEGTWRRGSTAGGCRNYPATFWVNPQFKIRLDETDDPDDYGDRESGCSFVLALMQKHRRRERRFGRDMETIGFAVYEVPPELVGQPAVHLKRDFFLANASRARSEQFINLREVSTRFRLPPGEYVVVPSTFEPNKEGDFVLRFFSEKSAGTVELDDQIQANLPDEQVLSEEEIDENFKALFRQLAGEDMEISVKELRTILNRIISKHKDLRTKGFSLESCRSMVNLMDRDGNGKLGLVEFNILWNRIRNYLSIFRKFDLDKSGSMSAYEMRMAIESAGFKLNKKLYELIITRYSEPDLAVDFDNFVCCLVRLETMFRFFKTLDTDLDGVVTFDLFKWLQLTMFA
T1 chain 2: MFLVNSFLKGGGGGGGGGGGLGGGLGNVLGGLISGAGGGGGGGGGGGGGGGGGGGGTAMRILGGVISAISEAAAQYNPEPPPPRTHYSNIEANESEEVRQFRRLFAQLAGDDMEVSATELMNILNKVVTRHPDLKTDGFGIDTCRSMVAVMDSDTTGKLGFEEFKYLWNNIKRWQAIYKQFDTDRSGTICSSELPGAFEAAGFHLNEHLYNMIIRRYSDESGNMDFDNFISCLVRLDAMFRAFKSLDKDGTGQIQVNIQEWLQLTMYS
Experiment: fluorescence-based enzyme inhibition assay
Positions of bridges follow the written chain, without caps; N, C: chain ends. No end group written: not given here. alpha,alpha'‑meta‑xylylene = alpha,alpha'-meta-xylylene linker (from a,a'-dibromo-meta-xylene) bridging two cysteines via bis-thioether
experimental.readout: pKi
Would you please state pKi, meaning minus log10 of the concentration in mol/L, as a bare number?

[in] Give me measured pKi, please, for this binder: IPPAYCELLC (linker 6-10 via alpha,alpha'‑meta‑xylylene) [IPPAYCELLC (SEQ ID NO:78)]
[out] 4.75

[in] Give me measured pKi, please, for this binder: IPPKYCEALC (linker 6-10 via alpha,alpha'‑meta‑xylylene) [IPPKYCEALC (SEQ ID NO:86)]
[out] 4.51

[in] Give me measured pKi, please, for this binder: LGKREVTIPPKYCELLC (linker 13-17 via alpha,alpha'‑meta‑xylylene, 17 amino acids) [LGKREVTIPPKYCELLC (SEQ ID NO:67)]
[out] 5.44

[in] Give me measured pKi, please, for this binder: IPPRYCELLC (linker 6-10 via alpha,alpha'‑meta‑xylylene) [IPPRYCELLC (SEQ ID NO:80)]
[out] 5.28

[in] Give me measured pKi, please, for this binder: IPPCYRECLA (linker 4-8 via alpha,alpha'‑meta‑xylylene) [IPPCYRECLA (SEQ ID NO:64)]
[out] 4.02

[in] Give me measured pKi, please, for this binder: QPPKYCELLC (linker 6-10 via alpha,alpha'‑meta‑xylylene) [QPPKYCELLC (SEQ ID NO:76)]
[out] 4.46
